Tested on: ncRNAs (SEQ ID NO 28-89)
experimental details: ncRNA arrays of melanocytes, keratinocytes, normal skin, melanoma cell lines and patient samples
Design: species or system human
assay context: melanoma patient 26 sample compared to normal skin
Below: a set of entries, each annotated with reported ncRNA array expression, patient 26.
Field format: numeric only.

Use these answered entries as a reference point.
SEQ ID NO 84 (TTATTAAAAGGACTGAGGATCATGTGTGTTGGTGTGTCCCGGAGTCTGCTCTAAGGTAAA; listed as DNA, chemistry not given here; listed as Homo sapiens)    1.373
SEQ ID NO 48 (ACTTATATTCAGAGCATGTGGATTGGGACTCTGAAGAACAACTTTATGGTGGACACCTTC; listed as DNA, chemistry not given here; listed as Homo sapiens)    2.981

Name the reported ncRNA array expression, patient 26 value associated with the substance SEQ ID NO 35 (GTTTCCATTGAAGAATATTACGCTCGGGGACAAGCCAGGTGCACGACCAAAAATTTAAAA; DNA, backbone and methylation of C not given here; listed as Homo sapiens)
3.301

How about SEQ ID NO 74 (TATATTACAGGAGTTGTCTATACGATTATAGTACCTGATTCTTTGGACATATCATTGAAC; listed as DNA, chemistry not given here; listed as Homo sapiens) ?
2.626

How about SEQ ID NO 78 (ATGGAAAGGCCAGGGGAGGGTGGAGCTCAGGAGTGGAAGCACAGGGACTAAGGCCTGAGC; listed as DNA, chemistry not given here; listed as Homo sapiens) ?
−3.351

How about SEQ ID NO 28 (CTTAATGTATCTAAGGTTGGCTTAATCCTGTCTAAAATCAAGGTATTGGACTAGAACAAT; DNA, backbone and methylation of C not given here; listed as Homo sapiens) ?
3.091

How about SEQ ID NO 53 (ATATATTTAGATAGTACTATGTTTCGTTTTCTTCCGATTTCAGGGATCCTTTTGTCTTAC; listed as DNA, chemistry not given here; listed as Homo sapiens) ?
−3.105

How about SEQ ID NO 55 (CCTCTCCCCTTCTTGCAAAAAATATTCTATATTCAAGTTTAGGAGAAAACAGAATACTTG; listed as DNA, chemistry not given here; listed as Homo sapiens) ?
−2.186
